Reported concentration at 48 h values for a set of compounds
Test: Pharmacokinetics of a single oral dose of Toltrazuril in horses (blood levels)
Format: in vivo
Conditions: horse, blood, po, 10 mg/kg, single oral dose of Toltrazuril 10 mg/kg, suspension; 48 h post treatment; one value per horse (A-F); read-out: Concentration in mg/l of Blood, 48 hours
Output spec: scalar in mg/L, unitless text.

• Cc1cc(-n2c(=O)[nH]c(=O)n(C)c2=O)ccc1Oc1ccc([S+]([O-])C(F)(F)F)cc1 (centres unmarked) [Toltrazuril Sulfoxide] = 0.732

Lab note: next compound to report on.
Please give the measured concentration at 48 h for this compound: Cc1cc(-n2c(=O)[nH]c(=O)n(C)c2=O)ccc1Oc1ccc(SC(F)(F)F)cc1 [Toltrazuril, reference compound] 7.61

----------
Test: Pharmacokinetics of a single oral dose of Toltrazuril in horses (blood levels)
Assay type: in vivo
Conditions: horse, blood, po, 10 mg/kg, single oral dose of Toltrazuril 10 mg/kg, suspension; 0.25 h post treatment; one value per horse (A-F); read-out: Concentration in mg/l of Blood, 0.25 hours
observation.type: concentration at 0.25 h (mg/L)
Output spec: scalar in mg/L, unitless text.

Please give the measured concentration at 0.25 h for this molecule: Cc1cc(-n2c(=O)[nH]c(=O)n(C)c2=O)ccc1Oc1ccc(S(=O)(=O)C(F)(F)F)cc1 0.01

----------
Assay: Pharmacokinetics of a single oral dose of Toltrazuril in horses (blood levels)
Format: in vivo
Conditions: horse, blood, po, 10 mg/kg, single oral dose of Toltrazuril 10 mg/kg, suspension; 72 h post treatment; one value per horse (A-F); read-out: Concentration in mg/l of Blood, 72 hours
Experimental: A pharmacokinetic study was conducted in horses comparing blood levels of Toltrazuril, Ponazuril and Toltrazuril Sulfoxide at various times post a single dose of Toltrazuril. All horses received a single dose of 10 mg/kg, which was administered orally as a suspension. Blood samples were drawn at the time of treatment (0) and at 0.25, 0.5, 1, 2, 4, 6, 12, 24, 48 and 72 hours post treatment. […]
observation.type: concentration at 72 h (mg/L)
Output spec: scalar in mg/L, unitless text.

• Cc1cc(-n2c(=O)[nH]c(=O)n(C)c2=O)ccc1Oc1ccc(SC(F)(F)F)cc1 [Toltrazuril, reference compound] = 6.65

Lab note: next compound to report on.
Please give the measured concentration at 72 h for this compound: Cc1cc(-n2c(=O)[nH]c(=O)n(C)c2=O)ccc1Oc1ccc([S+]([O-])C(F)(F)F)cc1 (centres unmarked) [Toltrazuril Sulfoxide] 0.592

----------
Test: Pharmacokinetics of a single oral dose of Toltrazuril in horses (blood levels)
Type: in vivo
Conditions: horse, blood, po, 10 mg/kg, single oral dose of Toltrazuril 10 mg/kg, suspension; 24 h post treatment; one value per horse (A-F); read-out: Concentration in mg/l of Blood, 24 hours
Reported concentration at 24 h values for a set of compounds
Output spec: scalar in mg/L, unitless text.

Below are worked cases with known answers.
- Cc1cc(-n2c(=O)[nH]c(=O)n(C)c2=O)ccc1Oc1ccc([S+]([O-])C(F)(F)F)cc1 (stereo not drawn) [Toltrazuril Sulfoxide]: 0.407
- Cc1cc(-n2c(=O)[nH]c(=O)n(C)c2=O)ccc1Oc1ccc(S(=O)(=O)C(F)(F)F)cc1: 0.324

Lab note: next compound to report on.
Please give the measured concentration at 24 h for this compound: Cc1cc(-n2c(=O)[nH]c(=O)n(C)c2=O)ccc1Oc1ccc(SC(F)(F)F)cc1 [Toltrazuril, reference compound] 6.43
